- assay_system: PCSK9 (Homo sapiens (Human), UniProt Q8NBP7)
- Sequence (Q8NBP7 153-692): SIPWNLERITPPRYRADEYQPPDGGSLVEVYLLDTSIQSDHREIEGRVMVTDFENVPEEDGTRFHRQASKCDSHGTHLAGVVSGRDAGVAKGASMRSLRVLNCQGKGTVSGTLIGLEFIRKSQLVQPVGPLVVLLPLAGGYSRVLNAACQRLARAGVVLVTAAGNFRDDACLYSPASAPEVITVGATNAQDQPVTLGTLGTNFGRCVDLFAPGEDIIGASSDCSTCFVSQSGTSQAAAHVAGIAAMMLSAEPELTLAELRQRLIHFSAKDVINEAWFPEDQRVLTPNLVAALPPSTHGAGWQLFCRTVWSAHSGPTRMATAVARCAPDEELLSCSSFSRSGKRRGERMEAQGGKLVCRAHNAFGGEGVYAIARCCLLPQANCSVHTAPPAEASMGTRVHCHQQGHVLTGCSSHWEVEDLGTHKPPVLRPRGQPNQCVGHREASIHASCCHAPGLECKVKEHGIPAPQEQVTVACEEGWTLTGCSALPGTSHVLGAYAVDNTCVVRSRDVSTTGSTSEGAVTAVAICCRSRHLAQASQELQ
- assay_procedure: PCSK9 Alexa FRET Standard assay (displacement of AlexaFluor647 tagged cyclic peptide Reagent A)
- Assay type: binding
- stated_conditions: PCSK9 Alexa FRET Standard assay, 0.5 nM PCSK9, 20 nM AF cyclic peptide Reagent A; read-out: IC50
Starred links: 1 amine or outer side, 2 acyl side, 3 side chain; linkers in the order of their positions; H or OH if unused. Positions of bridges follow the written chain, without caps; N, C: chain ends. Non-standard residues stand in square brackets, D forms with d. Residues, ends and D or L forms follow the SMILES beside them. Phe(3-CH2NH2) = O=C([C@H](Cc1cccc(CN[*:3])c1)N[*:1])[*:2]; Ala(imidazol-2-yl) = N[C@@H](Cc1ncc[nH]1)C(=O)O; Trp(5-F) = N[C@@H](Cc1c[nH]c2ccc(F)cc12)C(=O)O; Phe(4-CH2NH2) = NCc1ccc(C[C@H](N)C(=O)O)cc1; X4 = O=C(CCSCc1cccc(CSCCN[*:1])c1)[*:2]; AEF = NCCOc1ccc(C[C@H](N)C(=O)O)cc1; d(aThr) = C[C@@H](O)[C@@H](N)C(=O)O; Adipoyl = O=C(CCCCC(=O)[*:2])[*:1]; Aad = N[C@@H](CCCC(=O)O)C(=O)O; Aoc(2) = CCCCCC[C@H](N)C(=O)O; αMeP = C[C@@]1(C(=O)O)CCCN1; Dap = NC[C@H](N)C(=O)O; AEA = NCCOCC(=O)O
quantity: IC50

1. CC(=O)N[C@H]1CCC(=O)NCCOc2ccc(cc2)C[C@@H](C(N)=O)NC(=O)[C@]2(C)CCCN2C(=O)[C@H](Cc2ccc(O)cc2)NC(=O)[C@H](Cc2c[nH]cn2)NC(=O)[C@H](CC(=O)O)NC(=O)[C@H](Cc2c[nH]c3ccc(F)cc23)NC(=O)[C@H](Cc2c[nH]c3ccc(F)cc23)NC(=O)CNC(=O)[C@H](C)NC1=O [Compound 311] (Ac-EAG[Trp(5-F)][Trp(5-F)]DHY[αMeP][AEF]-NH2; lactam 1-10) : 1 to 12.1 µM
2. COc1ccc(C[C@@H]2NC(=O)[C@H](Cc3cnc[nH]3)NC(=O)[C@H](CC(=O)O)NC(=O)[C@H](Cc3c[nH]c4ccc(F)cc34)NC(=O)[C@H](Cc3c[nH]c4ccc(F)cc34)NC(=O)[C@@H](C)NC(=O)CCCCC(=O)NCc3ccc(cc3)C[C@@H](C(N)=O)NC(=O)[C@]3(C)CCCN3C2=O)cc1 [Compound 419] ([dA][Trp(5-F)][Trp(5-F)]DHY(Me)[αMeP][Phe(4-CH2NH2)]-NH2; linker N-8 via Adipoyl) : 0.1 to 1 µM
3. COc1ccc(C[C@@H]2NC(=O)[C@H](Cc3cnc[nH]3)NC(=O)[C@H](CC(=O)O)NC(=O)[C@H](Cc3c[nH]c4ccc(F)cc34)NC(=O)[C@H](Cc3c[nH]c4ccc(F)cc34)NC(=O)[C@@H](C)NC(=O)[C@H](CNC(=O)COCCN)NC(=O)CCSCc3cccc(c3)CSCCNC(=O)[C@]3(C)CCCN3C2=O)cc1 [Compound 424] (cyclo(DHY(Me)[αMeP][X4][Dap](AEA)[dA][Trp(5-F)][Trp(5-F)])) : 0.00011 to 0.1 µM
4. CCCCCC[C@@H]1NC(=O)CCSCc2cccc(c2)CSCCNC(=O)[C@]2(C)CCCN2C(=O)[C@H](Cc2ccc(OC)cc2)NC(=O)[C@H](Cc2ncc[nH]2)NC(=O)[C@H](CC(=O)O)NC(=O)[C@H](Cc2c[nH]c3ccc(F)cc23)NC(=O)[C@H](Cc2c[nH]c3ccc(F)cc23)NC(=O)[C@@H](C)NC1=O [Compound 442] (cyclo([Aoc(2)][dA][Trp(5-F)][Trp(5-F)]D[Ala(imidazol-2-yl)]Y(Me)[αMeP][X4])) : 0.00011 to 0.1 µM
5. COc1ccc(C[C@@H]2NC(=O)[C@@H]([C@@H](C)O)NC(=O)[C@H](CCCC(=O)O)NC(=O)[C@H](Cc3c[nH]c4ccc(F)cc34)NC(=O)[C@H](Cc3cccc(CN)c3)NC(=O)[C@@H](C)NC(=O)[C@H](C)NC(=O)CCSCc3cccc(c3)CSCCNC(=O)[C@]3(C)CCCN3C2=O)cc1 [Compound 346] (cyclo(A[dA][Phe(3-CH2NH2)][Trp(5-F)][Aad][d(aThr)]Y(Me)[αMeP][X4])) : 1 to 12.1 µM
